For each of the compounds below, state its relative IC50.
# Tested on: UT-SCC-44
# ASSAY OVERVIEW: relative IC50 (midpoint of the fitted curve; maximal inhibition may be below 50%); higher = less potent
# CONDITION SET: culture condition: on top of Myogel; treatment time: 3 days
Give bare numbers, in nM.

A selection of reference data follows.
CO[C@H]1C[C@@H]2CC[C@@H](C)[C@@](O)(O2)C(=O)C(=O)N2CCCC[C@H]2C(=O)O[C@H]([C@H](C)C[C@@H]2CC[C@@H](OCCO)[C@H](OC)C2)CC(=O)[C@H](C)/C=C(\C)[C@@H](O)[C@@H](OC)C(=O)[C@H](C)C[C@H](C)/C=C/C=C/C=C/1C [Everolimus]
1.1
O=C(NC[C@H](O)CO)c1ccncc1Nc1ccc(I)cc1F [Pimasertib]
148
COc1ccc(-c2cc3c(C)nc(N)nc3n([C@H]3CC[C@H](OCCO)CC3)c2=O)cn1
805
CO[C@H]1C[C@@H]2CC[C@@H](C)[C@@](O)(O2)C(=O)C(=O)N2CCCC[C@H]2C(=O)O[C@H]([C@H](C)C[C@@H]2CC[C@@H](OP(C)(C)=O)[C@H](OC)C2)CC(=O)[C@H](C)/C=C(\C)[C@@H](O)[C@@H](OC)C(=O)[C@H](C)C[C@H](C)/C=C/C=C/C=C/1C [Ridaforolimus]
0.271

Field: next compound
Entry COc1ncc(-c2ccc3nccc(-c4ccnnc4)c3c2)cc1NS(=O)(=O)c1ccc(F)cc1F [Omipalisib] : reported relative IC50 = ?
9.17
